Test system: IL-4
Experiment: PKC activator-induced IL-4 secretion reduction in EL-4 cells (ELISA)
Assay type: cell-based, mouse
Details: sample 100 μg/ml 2 h, then PKC activator 18 h, Table 12
MEASUREMENT_LABEL: IL-4 concentration (average ± deviation) (pg/µL)
The answer is to be given in pg/µL; state only the numeric part.

INSERT INTO results (molecule, measurement_units, numeric_readout) VALUES
  ('CCCCC/C=C\C/C=C\CCCCCCCC(=O)OC(COC(=O)CCCCCCCCCCCCCCC)COC(=O)C1CC1 (stereo not shown)', 'pg/µL', 527);

[Q] Which IL-4 concentration (average ± deviation) is reported for this molecule? CCCCC/C=C\C/C=C\CCCCCCCC(=O)OC(COC(C)=O)COC(=O)CCCCCCCCCCCCCCC (stereo not shown) [EC-18, 1-palmitoyl-2-linoleoyl-3-acetylglycerol, reference compound]
[A] 429.2

[Q] Which IL-4 concentration (average ± deviation) is reported for this molecule? CCCCC/C=C\C/C=C\CCCCCCCC(=O)OC(COC(=O)CCCCCCC)COC(=O)C(C)C (stereo not shown)
[A] 654.7

----------
Test system: STAT3
Assay: IL-6-induced STAT3 activity, SEAP expression in HEK-Blue IL-6 cells
Assay type: cell-based
Conditions: HEK-Blue IL-6 cells; sample 100 μg/ml 1 h, then IL-6 5 ng/ml 24 h; negative control = 100
MEASUREMENT_LABEL: STAT3 activity_SEAP expression(%) (average ± deviation)
Numeric answer plus unit only.

Example entries and their recorded answers appear below.
INSERT INTO assay_data (compound, result) VALUES
  ('CCCCC/C=C\C/C=C\CCCCCCCC(=O)OC(COC(=O)CCCCCCCCCCCCCCC)COC(C)C (stereo not shown) [EC_A21]', '224.1 ± 22.4%'),
  ('CCCCC/C=C\C/C=C\CCCCCCCC(=O)OC(COC(=O)CN)COC(=O)CCCCCCCCCCCCCCC (stereo not shown) [EC_A57]', '243.0 ± 29.5%'),
  ('CCCCC/C=C\C/C=C\CCCCCCCC(=O)OC(COC(C)=O)COC(=O)CCCCCCCCCCCCCCC (stereo not shown) [EC-18, 1-palmitoyl-2-linoleoyl-3-acetylglycerol, reference compound]', '173.0 ± 7.9%'),
  ('CCCCC/C=C\C/C=C\CCCCCCCC(=O)OC(COC(=O)CCCCCCCCCCCCCCC)COC(=O)C(C)C (stereo not shown) [EC_A19]', '162.9 ± 33.2%');

[Q] Which STAT3 activity_SEAP expression(%) (average ± deviation) is reported for this compound? CCCCC/C=C\C/C=C\CCCCCCCC(=O)OC(COCC)COC(=O)CCCCCCCCCCCCCCC (stereo not shown) [EC_A14]
[A] 185.0 ± 30.0%

[Q] Which STAT3 activity_SEAP expression(%) (average ± deviation) is reported for this compound? CCCCC/C=C\C/C=C\CCCCCCCC(=O)OC(COC(=O)CCC)COC(=O)CCCCCCCCCCCCCCC (stereo not shown) [EC_A17]
[A] 185.4 ± 19.3%

[Q] Which STAT3 activity_SEAP expression(%) (average ± deviation) is reported for this compound? CCCCC/C=C\C/C=C\CCCCCCCC(=O)OC(COCCC)COC(=O)CCCCCCCCCCCCCCC (stereo not shown) [EC_A15]
[A] 232.0 ± 50.4%
